Where these numbers come from: PubChem BioAssay

Run description: compounds binding Alexa647 anti-His antibody – biochemical, small-molecule microarray, 635 nm fluorescence, artefact control for SMM control protein annotation, primary screen (AID 1128);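 further: score merges feature fluorescence with signal-to-noise for each printed compound spot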
Recorded conditions: higher = more signal
Quantity kind: composite z-score
Give bare numbers.

COc1ccc([Si](C)(C)[C@H]2[C@H](CC(=O)N3CCC[C@H]3CO)O[C@@]3(C(=O)N(Cc4ccc(N5CCCCC5=O)cc4)c4ccccc43)[C@@H]2C)cc1    0.952
CN1C(=O)C2C(C3CC3)C=C3CN(Cc4cccc(Cl)c4)[C@@H]([C@@H](O)Cc4ccccc4)C3C2C1=O (stereo partly specified)    0.162
CCOC(=O)C1=CCC(c2cc3ccccc3[nH]2)N(CCN2CC(C(=O)OCC)=CCC2c2cc3ccccc3[nH]2)C1 (stereo unspecified)    1.65
C=CCOC(=O)[C@H]1[C@@H]2C(=O)O[C@@H](c3ccccc3)[C@@H](c3ccccc3)N2[C@@H](c2ccc(OCCOC(=O)[C@H]3C[C@H]4C(=O)N[C@@H](CC(C)C)C(=O)N4[C@H]3c3ccc(O)cc3)cc2)[C@]12C(=O)Nc1ccccc12    0.1
NC(=O)N1C(=O)C2C(C1=O)C1C=C(CCCO)C2C(c2ccc(CN3CCCC3)cc2)N1Cc1sc2ccccc2c1Cl (stereo unspecified)    0.17

API: the following record is the query input.
Lookup: Bench note: what composite z-score did COC(=O)[C@@]1(Cc2ccc(F)cc2)[C@H]2c3cc(C(=O)N(C)C)n(C)c3C[C@H]2CN1C(=O)c1ccccc1 show?
Found: 2.58
